# log10 of Ki per entry
- TEST_SYSTEM: Delta-type opioid receptor (Homo sapiens, UniProt P41143)
- Sequence (P41143 whole entry): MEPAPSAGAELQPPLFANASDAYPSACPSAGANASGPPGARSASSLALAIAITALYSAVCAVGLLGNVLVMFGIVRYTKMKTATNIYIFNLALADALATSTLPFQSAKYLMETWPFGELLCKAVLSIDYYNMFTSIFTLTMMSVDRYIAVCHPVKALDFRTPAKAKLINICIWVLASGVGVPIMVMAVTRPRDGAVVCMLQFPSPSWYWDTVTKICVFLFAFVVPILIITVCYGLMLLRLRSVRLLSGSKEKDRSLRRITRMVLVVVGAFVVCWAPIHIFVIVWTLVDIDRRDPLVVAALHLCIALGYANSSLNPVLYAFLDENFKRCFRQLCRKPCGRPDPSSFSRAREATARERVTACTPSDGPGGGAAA
- METHOD_NOTES: Displacement of [3H]DPDPE from DOP (unknown origin) stably expressed in HEK293 cells by liquid scintillation counter analysis
- Assay type: cell-based
MEASURED_ATTRIBUTE: log10 of Ki (log10 of the value in µM)

| SMILES_CODE | READING |
| --- | --- |
| C=C(C(N)=O)[C@@H](NC(=O)[C@H](Cc1ccccc1)NC(=O)[C@@H](C)N(C)C(=O)[C@@H](N)Cc1c(C)cc(O)cc1C)c1ccccc1 | -1.25 |
| C=C(C(N)=O)[C@@H](NC(=O)[C@H](Cc1c[nH]c2ccccc12)NC(=O)[C@@H](C)N(C)C(=O)[C@@H](N)Cc1ccc(O)cc1)c1ccccc1 | 0.60 |
| C=C(C(N)=O)[C@@H](NC(=O)[C@H](Cc1c[nH]c2ccccc12)NC(=O)[C@@H](C)N(C)C(=O)[C@@H](N)Cc1c(C)cc(O)cc1C)c1ccco1 | -1.48 |
| C=C(C(N)=O)[C@@H](NC(=O)[C@H](Cc1c[nH]c2ccccc12)NC(=O)[C@@H](C)N(C)C(=O)[C@@H](N)Cc1ccc(O)cc1)c1ccco1 | 0.49 |
| C=C(C(N)=O)[C@@H](NC(=O)[C@H](Cc1ccccc1)NC(=O)[C@@H](C)N(C)C(=O)[C@@H](N)Cc1ccc(O)cc1)c1ccccc1 | 0.63 |

====

- TEST_SYSTEM: Mu-type opioid receptor (Homo sapiens, UniProt P35372)
- Sequence (P35372 whole entry): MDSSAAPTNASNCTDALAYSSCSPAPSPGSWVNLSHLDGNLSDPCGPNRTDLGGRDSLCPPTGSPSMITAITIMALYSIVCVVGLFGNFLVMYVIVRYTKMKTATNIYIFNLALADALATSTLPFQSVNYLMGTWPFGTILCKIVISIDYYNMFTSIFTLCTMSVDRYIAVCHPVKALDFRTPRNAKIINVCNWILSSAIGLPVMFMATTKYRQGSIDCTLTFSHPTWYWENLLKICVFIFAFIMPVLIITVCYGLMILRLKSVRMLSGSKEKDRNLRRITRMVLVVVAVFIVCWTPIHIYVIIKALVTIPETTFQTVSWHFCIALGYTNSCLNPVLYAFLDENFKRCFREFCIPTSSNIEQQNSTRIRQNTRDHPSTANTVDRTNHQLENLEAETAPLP
- METHOD_NOTES: Agonist activity at human recombinant MOP expressed in CHO cells by calcium mobilization assay
- Assay type: functional, cell-based
pEC50: −log10 of the molar value.

| SMILES_CODE | TEST_SYSTEM | pEC50 |
| --- | --- | --- |
| Cc1ccc([C@@H]2NC(=O)[C@H](c3ccccc3)NC(=O)[C@H](NC(=O)[C@@H](N)Cc3c(C)cc(O)cc3C)CCCCNC(=O)C[C@@H](C(N)=O)NC2=O)cc1 | Mu-type opioid receptor (Homo sapiens, UniProt P35372) | 8.11 |
| Cc1ccccc1[C@@H]1NC(=O)[C@H](NC(=O)[C@@H](N)Cc2c(C)cc(O)cc2C)CCCCNC(=O)C[C@@H](C(N)=O)NC(=O)[C@H](c2ccccc2)NC1=O | Mu-type opioid receptor (Homo sapiens, UniProt P35372) | 8.25 |
| Cc1ccc([C@@H]2NC(=O)[C@H](NC(=O)[C@@H](N)Cc3c(C)cc(O)cc3C)CCCCNC(=O)C[C@@H](C(N)=O)NC(=O)[C@H](c3ccccc3)NC2=O)cc1 | Mu-type opioid receptor (Homo sapiens, UniProt P35372) | 8.55 |

====

- TEST_SYSTEM: UniProt P35372
- METHOD_NOTES: Agonist activity at MOP (unknown origin) stably expressed in HEK293 cells assessed as forskolin stimulated cAMP accumulation incubated for 30 mins by radioactivity based scintillation counter analysis
- Format: functional, cell-based
Strictly below 1 nM in EC50: Satisfied. Otherwise: Not satisfied.

| SMILES_CODE | CLASS_ASSIGNMENT |
| --- | --- |
| C=C(C(N)=O)[C@@H](NC(=O)[C@H](Cc1ccccc1)NC(=O)[C@@H](C)N(C)C(=O)[C@@H](N)Cc1c(C)cc(O)cc1C)c1ccccc1 | Satisfied |
| C=C(C(N)=O)[C@@H](NC(=O)[C@H](Cc1ccccc1)NC(=O)[C@@H](C)N(C)C(=O)[C@@H](N)Cc1ccc(O)cc1)c1ccccc1 | Not satisfied |
| C=C(C(N)=O)[C@@H](NC(=O)[C@H](Cc1c[nH]c2ccccc12)NC(=O)[C@@H](C)N(C)C(=O)[C@@H](N)Cc1c(C)cc(O)cc1C)c1ccccc1 | Satisfied |
| C=C(C(N)=O)[C@@H](NC(=O)[C@H](Cc1c[nH]c2ccccc12)NC(=O)[C@@H](C)N(C)C(=O)[C@@H](N)Cc1ccc(O)cc1)c1ccco1 | Not satisfied |
| C=C(C(N)=O)[C@@H](NC(=O)[C@H](Cc1c[nH]c2ccccc12)NC(=O)[C@@H](C)N(C)C(=O)[C@@H](N)Cc1ccc(O)cc1)c1ccccc1 | Not satisfied |
| C=C(C(N)=O)[C@@H](NC(=O)[C@H](Cc1ccccc1)NC(=O)[C@@H](C)N(C)C(=O)[C@@H](N)Cc1ccc(O)cc1)c1ccco1 | Not satisfied |
| C=C(C(N)=O)[C@@H](NC(=O)[C@H](Cc1c[nH]c2ccccc12)NC(=O)[C@@H](C)N(C)C(=O)[C@@H](N)Cc1c(C)cc(O)cc1C)c1ccco1 | Satisfied |
| C=C(C(N)=O)[C@@H](NC(=O)[C@H](Cc1ccccc1)NC(=O)[C@@H](C)N(C)C(=O)[C@@H](N)Cc1c(C)cc(O)cc1C)c1ccco1 | Satisfied |

====

As a worked illustration, we turn to pKi data collected for Mu-type opioid receptor (Cavia porcellus, UniProt P97266).
pKi: −log10 of the molar value.

| COMPOUND | TEST_SYSTEM | pKi |
| --- | --- | --- |
| CC[C@@H]1CN2CC[C@]3(O)c4c(ccc(F)c4OC)N[C@@H]3[C@@H]2C[C@@H]1/C(=C\OC)C(=O)OC | Mu-type opioid receptor (Cavia porcellus, UniProt P97266) | 8.68 |
| CC[C@@H]1CN2CC[C@]3(O)c4c(cccc4OC)N[C@@H]3[C@@H]2C[C@@H]1/C(=C\OC)C(=O)OC | Mu-type opioid receptor (Cavia porcellus, UniProt P97266) | 8.19 |
| CC[C@@H]1CN2CC[C@]3(O)c4c(cccc4OC)NC3[C@@H]2C[C@@H]1/C(=C\OC)C(=O)OC (some centres undefined) | Mu-type opioid receptor (Cavia porcellus, UniProt P97266) | 7.96 |
| CC[C@@H]1CN2CC[C@@]34OCCO[C@@]3(Nc3ccc(F)c(OC)c34)[C@@H]2C[C@@H]1/C(=C\OC)C(=O)OC | Mu-type opioid receptor (Cavia porcellus, UniProt P97266) | 8.14 |

====

- TEST_SYSTEM: UniProtKB P41145
- Sequence (P41145 whole entry): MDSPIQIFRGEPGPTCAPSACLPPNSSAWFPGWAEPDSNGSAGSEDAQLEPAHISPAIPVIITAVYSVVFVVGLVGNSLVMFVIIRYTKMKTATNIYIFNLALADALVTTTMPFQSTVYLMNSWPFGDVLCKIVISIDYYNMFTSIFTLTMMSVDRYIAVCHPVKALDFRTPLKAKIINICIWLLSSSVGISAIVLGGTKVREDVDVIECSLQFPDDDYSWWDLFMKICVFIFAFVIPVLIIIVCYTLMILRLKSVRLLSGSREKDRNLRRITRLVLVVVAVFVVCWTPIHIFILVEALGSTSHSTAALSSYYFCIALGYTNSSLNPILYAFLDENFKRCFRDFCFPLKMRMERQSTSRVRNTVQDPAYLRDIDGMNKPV
- METHOD_NOTES: Displacement of [3H]diprenorphine from KOP (unknown origin) stably expressed in CHO cell membrane incubated for 90 mins by scintillation counter analysis
- Type: cell membranes
# Ki per entry
MEASURED_ATTRIBUTE: Ki

| SMILES_CODE | MEASURED_ATTRIBUTE | READING |
| --- | --- | --- |
| C[C@@H]1NC(=O)[C@H](Cc2c[nH]c3ccccc23)NC(=O)[C@H](Cc2ccccc2)NC(=O)[C@H]2CCCN2C1=O | Ki | 8 nM |
| C[C@@H]1C(=O)N[C@@H](Cc2ccccc2)C(=O)N[C@@H](Cc2c[nH]c3ccccc23)C(=O)N[C@@H](Cc2ccccc2)C(=O)N1C | Ki | 113 nM |
| O=C1N[C@H](Cc2c[nH]c3ccccc23)C(=O)N[C@H](Cc2ccccc2)C(=O)N2CCC[C@@H]2C(=O)N[C@H]1Cc1ccccc1 | Ki | > 100000 nM |
| C[C@@H]1NC(=O)[C@H]2CCCN2C(=O)[C@H](Cc2ccccc2)NC(=O)[C@H](Cc2c[nH]c3ccccc23)NC1=O | Ki | 663 nM |
| C[C@@H]1NC(=O)[C@H](Cc2ccccc2)NC(=O)[C@H]2CCCN2C(=O)[C@H](Cc2ccccc2)NC1=O | Ki | 1550 nM |

====

- TEST_SYSTEM: Mu-type opioid receptor (Mus musculus)
- Sequence (P42866 whole entry): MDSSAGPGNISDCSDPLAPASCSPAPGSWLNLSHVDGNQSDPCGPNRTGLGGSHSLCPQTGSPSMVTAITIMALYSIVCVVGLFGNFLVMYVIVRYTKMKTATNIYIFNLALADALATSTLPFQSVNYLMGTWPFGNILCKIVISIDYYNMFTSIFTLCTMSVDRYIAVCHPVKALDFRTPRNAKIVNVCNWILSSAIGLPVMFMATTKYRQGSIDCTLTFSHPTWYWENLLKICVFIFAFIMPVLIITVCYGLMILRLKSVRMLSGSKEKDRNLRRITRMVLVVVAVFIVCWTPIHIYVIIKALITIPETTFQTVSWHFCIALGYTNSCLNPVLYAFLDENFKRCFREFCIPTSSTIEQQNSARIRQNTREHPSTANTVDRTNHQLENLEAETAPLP
- METHOD_NOTES: Antagonist activity at mouse vas deferns MOP
- Format: functional
Square brackets hold non-standard residues; d marks the D form. Peptide text beside a SMILES is read from it.

| COMPOUND | TEST_SYSTEM | VALUE_OPERATOR | IC50 [nM] |
| --- | --- | --- | --- |
| C[C@@H](NC(=O)[C@@H](N)Cc1ccc(O)cc1)C(=O)N[C@@H](Cc1ccccc1)C(=O)NCC(=O)N[C@@H](Cc1ccc(O)cc1)C(=O)N1CCC[C@H]1C(N)=O | Mu-type opioid receptor (Mus musculus) | = | 43.2 |
| C[C@@H](NC(=O)[C@@H](N)Cc1ccc(O)cc1)C(=O)N[C@@H](Cc1ccccc1)C(=O)NCC(=O)N[C@@H](Cc1ccc(O)cc1)C(=O)N1CCC[C@H]1C(=O)N[C@@H](CO)C(N)=O | Mu-type opioid receptor (Mus musculus) | > | 15000 |
| C[C@@H](NC(=O)[C@@H](N)Cc1ccc(O)cc1)C(=O)N[C@@H](Cc1ccccc1)C(=O)NCC(=O)N[C@@H](Cc1ccc(O)cc1)C(N)=O (H-Y[dA]FGY-NH2) | Mu-type opioid receptor (Mus musculus) | = | 23.8 |
| C[C@@H](NC(=O)[C@@H](N)Cc1ccc(O)cc1)C(=O)N[C@@H](Cc1ccccc1)C(=O)NCC(=O)N[C@@H](Cc1ccc(O)cc1)C(=O)N1CCC[C@H]1C(=O)N[C@@H](CO)C(N)=O [DERMORPHIN] | Mu-type opioid receptor (Mus musculus) | = | 16.5 |
| NCCCC[C@H](NC(=O)[C@H](Cc1ccccc1)NC(=O)[C@@H](CCCN=C(N)N)NC(=O)[C@@H](N)Cc1ccc(O)cc1)C(N)=O | Mu-type opioid receptor (Mus musculus) | = | 781 |
| C[C@@H](NC(=O)[C@@H](N)Cc1ccc(O)cc1)C(=O)N[C@@H](Cc1ccccc1)C(N)=O | Mu-type opioid receptor (Mus musculus) | = | 4050 |
| C[C@@H](NC(=O)[C@@H](N)Cc1ccc(O)cc1)C(=O)N[C@@H](Cc1ccccc1)C(=O)NCC(=O)N[C@@H](Cc1ccc(O)cc1)C(=O)N1CCC[C@H]1C(=O)N[C@@H](CCCCN)C(N)=O | Mu-type opioid receptor (Mus musculus) | = | 52 |
| C[C@@H](NC(=O)[C@@H](N)Cc1ccc(O)cc1)C(=O)N[C@@H](Cc1ccccc1)C(=O)NCC(=O)O (H-Y[dA]FG-OH) | Mu-type opioid receptor (Mus musculus) | = | 263 |
